Settings: in water, 293.15 K
endpoint-name: solubility (mole fraction)
Give bare numbers.

*Q* Look at this molecule and give its reported solubility (mole fraction). COC1=CC(=O)C[C@@H](C)[C@]12Oc1c(Cl)c(OC)cc(OC)c1C2=O
*A* 3.86e-07

---

Conditions: in methanol, 293.15 K
endpoint-name: solubility (mole fraction)
Numbers only.

*Q* Look at this molecule and give its reported solubility (mole fraction). COC1=CC(=O)C[C@@H](C)[C@]12Oc1c(Cl)c(OC)cc(OC)c1C2=O
*A* 0.000413

---

Conditions: in acetonitrile, 293.15 K
endpoint-name: solubility (mole fraction)
Give bare numbers.

*Q* Look at this molecule and give its reported solubility (mole fraction). COC1=CC(=O)C[C@@H](C)[C@]12Oc1c(Cl)c(OC)cc(OC)c1C2=O
*A* 0.00473

---

Details: in acetonitrile, 308.15 K
endpoint-name: solubility (mole fraction)
Answers are plain numbers.

*Q* Look at this molecule and give its reported solubility (mole fraction). COC1=CC(=O)C[C@@H](C)[C@]12Oc1c(Cl)c(OC)cc(OC)c1C2=O
*A* 0.00697

---

Details: in methanol, 303.15 K
endpoint-name: solubility (mole fraction)
Numbers only.

*Q* Look at this compound and give its reported solubility (mole fraction). COC1=CC(=O)C[C@@H](C)[C@]12Oc1c(Cl)c(OC)cc(OC)c1C2=O
*A* 0.000632

---

Details: in water, 288.15 K
endpoint-name: solubility (mole fraction)
Numbers only.

*Q* Look at this compound and give its reported solubility (mole fraction). COC1=CC(=O)C[C@@H](C)[C@]12Oc1c(Cl)c(OC)cc(OC)c1C2=O
*A* 3.08e-07

---

Details: in NMP, 313.15 K
endpoint-name: solubility (mole fraction)
One number for each entry.

*Q* Look at this compound and give its reported solubility (mole fraction). COC1=CC(=O)C[C@@H](C)[C@]12Oc1c(Cl)c(OC)cc(OC)c1C2=O
*A* 0.0511

---

Conditions: in DMF, 313.15 K
endpoint-name: solubility (mole fraction)
One number for each entry.

*Q* Look at this molecule and give its reported solubility (mole fraction). COC1=CC(=O)C[C@@H](C)[C@]12Oc1c(Cl)c(OC)cc(OC)c1C2=O
*A* 0.012

---

Conditions: in ethanol, 303.15 K
endpoint-name: solubility (mole fraction)
Numbers only.

*Q* Look at this compound and give its reported solubility (mole fraction). COC1=CC(=O)C[C@@H](C)[C@]12Oc1c(Cl)c(OC)cc(OC)c1C2=O
*A* 0.000542

---

Conditions: in acetonitrile, 278.15 K
endpoint-name: solubility (mole fraction)
Give bare numbers.

*Q* Look at this compound and give its reported solubility (mole fraction). COC1=CC(=O)C[C@@H](C)[C@]12Oc1c(Cl)c(OC)cc(OC)c1C2=O
*A* 0.00331

---

Conditions: in acetonitrile, 318.15 K
endpoint-name: solubility (mole fraction)
Numbers only.

*Q* Look at this compound and give its reported solubility (mole fraction). COC1=CC(=O)C[C@@H](C)[C@]12Oc1c(Cl)c(OC)cc(OC)c1C2=O
*A* 0.00899

---

Conditions: in water, 278.15 K
endpoint-name: solubility (mole fraction)

*Q* Look at this compound and give its reported solubility (mole fraction). COC1=CC(=O)C[C@@H](C)[C@]12Oc1c(Cl)c(OC)cc(OC)c1C2=O
*A* 1.93e-07
